Each recorded value in this set is attributed to patent US20140274782A1.

// Relative to UNC0638 UNC Heavy lookup, one value per entry
test-target: T1, G9a and GLP (Homo sapiens, UniProt Q96KQ7+Q9H9B1)
T1 sequence (Q96KQ7 2-1210 limits assumed): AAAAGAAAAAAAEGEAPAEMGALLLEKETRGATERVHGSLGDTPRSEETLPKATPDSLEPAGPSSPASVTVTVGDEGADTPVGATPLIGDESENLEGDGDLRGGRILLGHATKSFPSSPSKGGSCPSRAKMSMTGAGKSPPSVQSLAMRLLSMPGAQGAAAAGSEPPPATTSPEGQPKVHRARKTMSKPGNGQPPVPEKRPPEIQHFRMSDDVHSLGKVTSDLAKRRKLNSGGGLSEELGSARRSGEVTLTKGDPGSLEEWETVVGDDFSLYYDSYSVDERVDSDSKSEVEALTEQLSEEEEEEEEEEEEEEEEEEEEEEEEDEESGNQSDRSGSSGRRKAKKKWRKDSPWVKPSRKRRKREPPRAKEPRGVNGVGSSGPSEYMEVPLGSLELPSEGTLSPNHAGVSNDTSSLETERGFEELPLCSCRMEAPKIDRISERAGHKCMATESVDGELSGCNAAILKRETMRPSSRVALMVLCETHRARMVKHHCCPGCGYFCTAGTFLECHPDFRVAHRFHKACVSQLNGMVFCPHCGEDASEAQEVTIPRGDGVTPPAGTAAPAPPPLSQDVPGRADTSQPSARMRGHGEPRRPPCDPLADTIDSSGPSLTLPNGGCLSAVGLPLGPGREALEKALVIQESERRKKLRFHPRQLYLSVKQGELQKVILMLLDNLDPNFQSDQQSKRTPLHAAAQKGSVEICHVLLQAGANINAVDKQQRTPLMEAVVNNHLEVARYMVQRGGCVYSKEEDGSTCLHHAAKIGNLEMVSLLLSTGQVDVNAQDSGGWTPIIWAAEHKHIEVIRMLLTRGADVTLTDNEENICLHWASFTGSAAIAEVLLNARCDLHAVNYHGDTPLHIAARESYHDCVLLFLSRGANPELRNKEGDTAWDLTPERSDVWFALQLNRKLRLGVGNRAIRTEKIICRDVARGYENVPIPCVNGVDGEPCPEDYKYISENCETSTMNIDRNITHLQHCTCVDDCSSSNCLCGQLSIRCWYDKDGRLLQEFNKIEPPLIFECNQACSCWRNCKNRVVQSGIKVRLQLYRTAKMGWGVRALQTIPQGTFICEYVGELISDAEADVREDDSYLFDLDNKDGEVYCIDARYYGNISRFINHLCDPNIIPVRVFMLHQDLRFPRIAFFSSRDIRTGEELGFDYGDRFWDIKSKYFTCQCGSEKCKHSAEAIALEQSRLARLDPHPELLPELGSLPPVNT
T1 sequence (Q9H9B1 2-1298 limits assumed): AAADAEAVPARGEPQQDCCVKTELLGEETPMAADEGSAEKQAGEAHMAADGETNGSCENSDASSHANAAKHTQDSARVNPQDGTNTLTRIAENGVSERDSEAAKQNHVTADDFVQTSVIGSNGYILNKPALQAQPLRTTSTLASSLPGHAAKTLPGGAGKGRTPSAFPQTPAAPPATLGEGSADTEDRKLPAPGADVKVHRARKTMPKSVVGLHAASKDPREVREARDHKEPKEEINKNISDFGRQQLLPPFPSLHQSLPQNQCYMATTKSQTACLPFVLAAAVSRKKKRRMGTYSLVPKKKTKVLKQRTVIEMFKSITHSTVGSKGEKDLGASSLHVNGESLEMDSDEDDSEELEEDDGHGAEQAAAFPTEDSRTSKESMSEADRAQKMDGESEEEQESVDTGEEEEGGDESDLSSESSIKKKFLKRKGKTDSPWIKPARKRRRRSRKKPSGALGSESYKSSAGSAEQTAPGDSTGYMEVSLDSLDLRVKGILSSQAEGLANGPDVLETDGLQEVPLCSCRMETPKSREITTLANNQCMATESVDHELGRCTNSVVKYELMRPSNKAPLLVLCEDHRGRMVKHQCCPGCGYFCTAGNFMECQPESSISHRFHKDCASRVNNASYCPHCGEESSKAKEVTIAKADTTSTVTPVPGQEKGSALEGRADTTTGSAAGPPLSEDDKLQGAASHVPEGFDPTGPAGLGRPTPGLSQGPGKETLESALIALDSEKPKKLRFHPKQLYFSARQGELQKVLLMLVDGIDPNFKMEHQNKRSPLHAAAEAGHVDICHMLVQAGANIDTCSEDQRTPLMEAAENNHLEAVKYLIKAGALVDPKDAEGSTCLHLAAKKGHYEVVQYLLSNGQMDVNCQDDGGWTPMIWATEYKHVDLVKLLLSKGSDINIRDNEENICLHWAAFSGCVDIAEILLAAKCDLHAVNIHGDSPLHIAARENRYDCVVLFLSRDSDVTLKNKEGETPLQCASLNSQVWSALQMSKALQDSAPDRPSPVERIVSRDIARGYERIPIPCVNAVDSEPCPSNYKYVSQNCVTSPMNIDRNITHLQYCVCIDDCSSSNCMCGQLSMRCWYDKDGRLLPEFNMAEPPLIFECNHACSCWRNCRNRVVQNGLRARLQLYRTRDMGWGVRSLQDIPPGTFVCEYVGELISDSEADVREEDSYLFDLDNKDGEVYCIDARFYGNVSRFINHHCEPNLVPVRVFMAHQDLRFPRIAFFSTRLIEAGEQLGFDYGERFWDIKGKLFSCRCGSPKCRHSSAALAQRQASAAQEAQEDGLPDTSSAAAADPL
experiment-description: Triple SILAC pull-down after UNC0638 treatment of 293T cells, DMSO/UNC0638 ratio of protein captured by 3×MBT;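 further: mass spectrometry (Q-Exactive) SILAC quantitation, DMSO/UNC0638 ratio computed after subtracting 3×MBTD355N mutant pull-down background, only proteins with at least twofold 3×MBT over mutant signal considered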
Type: cell-based
Set-up: endogenous in cells; host or cells: HEK 293T
condition-label: SILAC ratio DMSO relative to UNC0638, pull-down with 3xMBT; UNC0638 in heavy SILAC media; all values in log base 2
Reply with just the number (in log base 2).

A selection of reference data follows.
Q: Which Relative to UNC0638 UNC Heavy value is on record for SNRNP40 (protein, UniProt Q96DI7 1-357, looked up) U5 small nuclear …: MIEQQKRKGPELPLVPVKRQRHELLLGAGSGPGAGQQQATPGALLQAGPPRCSSLQAPIMLLSGHEGEVYCCKFHPNGSTLASAGFDRLILLWNVYGDCDNYATLKGHSGAVMELHYNTDGSMLFSASTDKTVAVWDSETGERVKRLKGHTSFVNSCYPARRGPQLVCTGSDDGTVKLWDIRKKAAIQTFQNTYQVLAVTFNDTSDQIISGGIDNDIKVWDLRQNKLTYTMRGHADSVTGLSLSSEGSYLLSNAMDNTVRVWDVRPFAPKERCVKIFQGNVHNFEKNLLRCSWSPDGSKIAAGSADRFVYVWDTTSRRILYKLPGHAGSINEVAFHPDEPIIISASSDKRLYMGEIQ ?
Result: 0.27

Q: Which Relative to UNC0638 UNC Heavy value is on record for DNAJC9 (protein, UniProt Q8WXX5 1-260, looked up) DnaJ homolog subfamily C …: MGLLDLCEEVFGTADLYRVLGVRREASDGEVRRGYHKVSLQVHPDRVGEGDKEDATRRFQILGKVYSVLSDREQRAVYDEQGTVDEDSPVLTQDRDWEAYWRLLFKKISLEDIQAFEKTYKGSEEELADIKQAYLDFKGDMDQIMESVLCVQYTEEPRIRNIIQQAIDAGEVPSYNAFVKESKQKMNARKRRAQEEAKEAEMSRKELGLDEGVDSLKAAIQSRQKDRQKEMDNFLAQMEAKYCKSSKGGGKKSALKKEKK ?
Result: 0.09

Others:
Q: Which Relative to UNC0638 UNC Heavy value is on record for UBXN1 (protein, UniProt Q04323 2-297, looked up) UBX domain-containing protein …: AELTALESLIEMGFPRGRAEKALALTGNQGIEAAMDWLMEHEDDPDVDEPLETPLGHILGREPTSSEQGGLEGSGSAAGEGKPALSEEERQEQTKRMLELVAQKQREREEREEREALERERQRRRQGQELSAARQRLQEDEMRRAAEERRREKAEELAARQRVREKIERDKAERAKKYGGSVGSQPPPVAPEPGPVPSSPSQEPPTKREYDQCRIQVRLPDGTSLTQTFRAREQLAAVRLYVELHRGEELGGGQDPVQLLSGFPRRAFSEADMERPLQELGLVPSAVLIVAKKCPS ?
Result: 0.12
